- study-target: T1, Zika virus envelope protein (EP), strain ILM (Brazil Paraiba 2015), on whole virus (Zika virus)
- T1 construct: also called Zika strain ILM
property-name: Kd (µg/mL)
Your answer should be a plain number; it is taken to be in µg/mL.

Below are worked cases with known answers.
Q. Retrieve Kd measured for mAb 6 (antibody, V domains shown, also called VH.3 / VL.1) VH: EVQLVESGGGLVQPGGSLRLSCSASGFSFSTYSMHWVRQAPGKGLEYVSAITGEGDSAFYADSVKGRFTISRDNSKNTLYFEMNSLRPEDTAVYYCVGGYSNFYYYYTMDAWGQGTSVTVSS VL: EIVLTQSPASLSLSPGERATLSCRATQSISTFLAWYQHKPGQAPRLLIYDASTRASGVPARFSGSRSGTDFTLTISSLEPEDFAVYYCQQRYNWPPYSFGQGTKVEIK and print it.
A. 3.85

Q. Retrieve Kd measured for mAb 7 (antibody, V domains shown, also called VH.2 / VL.4) VH: EVQLLESGGGLVQPGGSLRLSCAASGFSFSTYSMHWVRQAPGKGLEWVSAISGEGDSAYYADSVKGRFEISRDNSKNTLYLQMNKVRAEDTAVYYCVGGYSNFYYYYTMDAWGQGTMVTVSS VL: DIVMTQSPASLSLSPGERATLSCRATQSIVTFLAWYQQKPGQAPRLLIYDASTNASGIPARFSGSRSGTDFTLTITRLEPEDFAVYYCQQRYNWPPYSFGQGTKLEIK and print it.
A. 5.21

Q. Retrieve Kd measured for fusion loop targeting pan-flavivirus antibody (4G2) (antibody, V domains shown) VH: EVQLQQSGPELVKPGTSVKISCKTSGYTFTEYTIHWVKQSHGKSLAWIGGIDPNSGGTNYSPNFKGKATLTVDKSSSTAYMDLRSLSSEDSAVYFCARIYHYDGYFDVWGAGTAVTVSS VL: DIKMTQSPSSMYASLGERVTITCKASQDINSYLTWFQQKPGKSPKTLIYRANRLIDGVPSRFSGSGSGQDYSLTISSLDYEDMGIYYCLQYDEFPPTFGGGTKLEIKR and print it.
A. 6.41

Proceeding to the next binder to report its Kd.
Q. Retrieve Kd measured for mAb 8 (antibody, V domains shown, also called VH.1 / VL.2) VH: EVQLLESGGGLVQPGGSLRLSCAASGFSFSTYSMHWVRQAPGKGLEWVSAISGEGDSAYYADSVKGRFTISRDNSKNTLYLQMNKVRAEDTAVYYCVGGYSNFYYYYTMDAWGQGTMVTVSS VL: DIVMTQSPASLSLSPGERATLSCRATQSISTFLAWYQQKPGQAPRLLIYDASTRASGIPARFSGSRSGTDFTLTITRLEPEDFAVYYCQQRYNWPPYSFGQGTKLEIK and print it.
A. 19.3
